Target: Mcl-1 protein (UniProtKB primary accession number: Q07820) (Homo sapiens, UniProt Q07820)
Sequence (Q07820 whole entry): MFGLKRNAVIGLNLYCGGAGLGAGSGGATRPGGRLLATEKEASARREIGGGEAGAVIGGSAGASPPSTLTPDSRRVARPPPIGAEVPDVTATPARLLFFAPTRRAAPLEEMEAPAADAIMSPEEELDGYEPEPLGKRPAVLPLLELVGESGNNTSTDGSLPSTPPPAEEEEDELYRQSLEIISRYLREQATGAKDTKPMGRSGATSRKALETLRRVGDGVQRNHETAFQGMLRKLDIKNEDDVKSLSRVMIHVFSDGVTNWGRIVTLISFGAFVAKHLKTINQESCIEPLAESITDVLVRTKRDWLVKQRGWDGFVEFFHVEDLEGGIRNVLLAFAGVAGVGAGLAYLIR
Assay: Inhibition of Mcl-1 by fluorescence polarisation, Method 1
Assay type: binding
Conditions: fluorescence polarisation; Method 1, or Method 2; read-out: IC50 (M) Mcl-1 FP
Can you tell me IC50 for the items I'm about to list?
Give bare numbers, in M.

Example molecules with recorded IC50:
[
  {
    "molecule": "CCc1sc2ncnc(OC(Cc3ccccc3)C(=O)O)c2c1-c1ccc(OCc2ccncc2)c(Cl)c1C (stereo not shown)",
    "IC50 / M": "1.6e-08"
  },
  {
    "molecule": "CCc1sc2ncnc(OC(Cc3ccccc3)C(=O)O)c2c1-c1ccc(OCCCN(C)C)c(Cl)c1C (stereo not shown)",
    "IC50 / M": "8.4e-08"
  },
  {
    "molecule": "COc1ccccc1CC(Oc1ncnc2sc(-c3cccc(C)c3)c(-c3ccc(OCCN4CCN(C)CC4)c(Cl)c3C)c12)C(=O)O (stereo not shown)",
    "IC50 / M": "1.7e-08"
  }
]

Turning to the following molecule.
Input: Would you mind telling me what IC50 value was observed for CCCCn1nccc1COc1ccccc1CC(Oc1ncnc2sc(-c3ccc(OCCN4CCOCC4)cc3)c(-c3ccc(OCCN4CCN(C)CC4)c(Cl)c3C)c12)C(=O)O (stereo not shown) ?
Output: 4e-09

Measured values drawn from patent US9670227B2 for this set.
